Read-out: Decorin, DCN (gene 1634)
Assay: BSK_MyoF_Decorin: BioMAP Diversity Plus: MyoF Assay for Decorin Biomarker Activity (AID 2284265)
Conditions: primary human lung fibroblasts
Activity calls are given as the source filed them. How the source made its calls: active means hit-call score of the fitted dose curve at least 0.9, where 1 is the maximum; inactive means score below 0.9.
Assign a class; possible classes are active, inactive

[Q] Please indicate how the test categorized CC(C)c1cccc(C(C)C)c1N .
[A] inactive

[Q] Please indicate how the test categorized CCOC(=O)C1=NOC(c2ccccc2)(c2ccccc2)C1 .
[A] inactive

[Q] Please indicate how the test categorized CC=C(C)C=CC=C(C)C .
[A] inactive

[Q] Please indicate how the test categorized C=CC(=O)OCCCCCCOC(=O)C=C .
[A] inactive

[Q] Please indicate how the test categorized C=CCCCCCCCCC=O .
[A] inactive

[Q] Please indicate how the test categorized CC1=CC=C(C(C)C)CC1 .
[A] inactive

[Q] Please indicate how the test categorized CCCCCCOC(=O)CCCCC(=O)OCCCCCC .
[A] inactive

[Q] Please indicate how the test categorized CC/C=C\CCOC(=O)c1ccccc1O .
[A] active

[Q] Please indicate how the test categorized CCCCCCCCC(CO)CCCCCC (centres undefined) .
[A] inactive

[Q] Please indicate how the test categorized Oc1ccc(/C=C/c2cc(O)cc(O)c2)cc1 .
[A] inactive

[Q] Please indicate how the test categorized c1ccc2sc(SSN3CCOCC3)nc2c1 .
[A] inactive

[Q] Please indicate how the test categorized CCCCC1C(=O)N(c2ccccc2)N(c2ccccc2)C1=O .
[A] inactive

[Q] Please indicate how the test categorized C=CC(=O)NC(C)(C)C .
[A] inactive

[Q] Please indicate how the test categorized C=CC(=O)OCC(C)OCC(C)OCC(C)OC(=O)C=C (centres undefined) .
[A] active

[Q] Please indicate how the test categorized CCC1(C)C(=O)N(Cl)C(=O)N1Cl (centres undefined) .
[A] inactive

[Q] Please indicate how the test categorized C=CC(=O)NCOCCCC .
[A] inactive

[Q] Please indicate how the test categorized O=C(Oc1ccccc1)c1ccccc1C(=O)Oc1ccccc1 .
[A] inactive

[Q] Please indicate how the test categorized COc1ccc(C(=O)/C(Br)=C\C(=O)O)cc1 .
[A] inactive

[Q] Please indicate how the test categorized CC(c1cc(C(C)(C)C)cc(C(C)(C)C)c1O)c1cc(C(C)(C)C)cc(C(C)(C)C)c1O .
[A] inactive

[Q] Please indicate how the test categorized O=C(O)C(F)(F)C(F)(F)C(F)(F)C(F)(F)C(=O)O .
[A] inactive

[Q] Please indicate how the test categorized CC(C)[N+](C)(CCOC(=O)C1c2ccccc2Oc2ccccc21)C(C)C .
[A] inactive

[Q] Please indicate how the test categorized O=C(Cl)c1c(Cl)c(Cl)c(C(=O)Cl)c(Cl)c1Cl .
[A] inactive

[Q] Please indicate how the test categorized CCCCCCCCCCCC(C)=O .
[A] inactive

[Q] Please indicate how the test categorized c1ccc2c(c1)[nH]c1ccccc12 .
[A] inactive

[Q] Please indicate how the test categorized CC1(C)CC(O)CC(C)(C)N1[O] .
[A] inactive

[Q] Please indicate how the test categorized CC/C=C\C/C=C\C/C=C\CCCCCCCC(=O)OC .
[A] inactive

[Q] Please indicate how the test categorized C=C(C)C(=O)OCCCCCCCCCCCC .
[A] inactive

[Q] Please indicate how the test categorized C=CC(=O)OCCCCCCCC(C)C .
[A] inactive

[Q] Please indicate how the test categorized Oc1c(Cl)cc(Cl)c(Cl)c1Cl .
[A] active

Source of measurements: PubChem BioAssay (EPA / NIEHS)
